The origin of these recorded values is patent US7432260B2.

targetUnderTest: CDK4/cyclin D1 (Homo sapiens, UniProt P11802)
Sequence (P11802 whole entry): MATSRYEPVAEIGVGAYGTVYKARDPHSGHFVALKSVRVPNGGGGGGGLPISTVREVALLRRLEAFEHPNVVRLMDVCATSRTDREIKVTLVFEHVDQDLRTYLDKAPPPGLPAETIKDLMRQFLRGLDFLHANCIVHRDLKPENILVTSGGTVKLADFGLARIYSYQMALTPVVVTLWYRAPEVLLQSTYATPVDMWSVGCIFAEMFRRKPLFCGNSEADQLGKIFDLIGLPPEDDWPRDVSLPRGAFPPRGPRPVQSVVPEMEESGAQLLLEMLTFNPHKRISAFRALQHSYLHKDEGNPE
Sequence (P24385 whole entry partner): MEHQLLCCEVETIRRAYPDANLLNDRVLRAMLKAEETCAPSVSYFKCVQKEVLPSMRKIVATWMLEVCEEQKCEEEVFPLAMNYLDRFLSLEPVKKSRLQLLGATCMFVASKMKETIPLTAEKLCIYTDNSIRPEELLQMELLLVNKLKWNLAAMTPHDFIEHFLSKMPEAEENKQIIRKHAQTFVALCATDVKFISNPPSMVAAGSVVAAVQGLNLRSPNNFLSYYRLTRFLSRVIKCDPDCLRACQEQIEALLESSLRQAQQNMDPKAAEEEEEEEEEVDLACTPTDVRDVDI
runDescription: Kinase assay CDK4/cyclin D1
Type: biochemical
setupConditions: Table 2; read-out: Kinase Inhibition IC50 CDK4 cyclin D1
pIC50: −log10 of the molar value.
experimentalEndpoint: pIC50

Here is how some molecules turned out for pIC50.
CNc1nc(C)c(-c2ccnc(Nc3cccc(CNS(=O)(=O)C(F)(F)F)c3)n2)s1 : 5.64
Cc1nc(NC(=O)CCNCCN2CCOCC2)sc1-c1ccnc(Nc2ccc(Cl)cc2)n1 : 4.74
CNc1nc(C)c(-c2ccnc(Nc3cccc(CNC(C)=O)c3)n2)s1 : 5.11
Cc1c(-c2ccnc(Nc3ccc(N4CCOCC4)cc3)n2)sc(=O)n1C : 5.89
CNc1nc(C)c(-c2ccnc(Nc3ccc(OCCOC)c([N+](=O)[O-])c3)n2)s1 : 5.47

[A] Cc1nc(NC(=O)CN2CCN(C(=O)OC(C)(C)C)CC2)sc1-c1ccnc(Nc2cccc([N+](=O)[O-])c2)n1
[B] Cc1nc(C)c(-c2ccnc(Nc3ccc(N4CCN(C)CC4)cc3)n2)s1
[C] Cc1nc(NS(C)(=O)=O)sc1-c1ccnc(Nc2cccc([N+](=O)[O-])c2)n1
Exam item: Hey, can you sort those molecules up there by pIC50, smallest first? Answer format: list of labels, ordered as asked.
Marked response: A, C, B
(A: 4.54, C: 5.96, B: 6.72)

[A] Cc1nc(NC(=O)CCN2CCOCC2)sc1-c1ccnc(Nc2ccc(Cl)cc2)n1
[B] CCNc1nc(C)c(-c2ccnc(Nc3ccc(N4CCOCC4)cc3)n2)s1
Exam item: Among A and B , whose measured pIC50 is the smaller figure? Pick one; state its label.
Marked response: A
(A: 5.33, B: 6.37)

[1] Cc1nc(N)sc1-c1ccnc(Nc2ccc(S(C)(=O)=O)cc2)n1
[2] Cc1nc(NC(=O)CCN2CCOCC2)sc1-c1ccnc(Nc2cccc([N+](=O)[O-])c2)n1
Exam item: Sort 1 and 2 by pIC50 descending and give the first. Pick one; state its label.
Marked response: 2

[a] Cc1nc(C)c(-c2ccnc(Nc3ccc(NC(=O)CN4CCCC4)cc3)n2)s1
[b] Cc1nc(C)c(-c2ccnc(Nc3ccc(N4CCN(CCCO)CC4)cc3)n2)s1
[c] Cc1nc(NC(=O)CNCCOCCO)sc1-c1ccnc(Nc2ccc(N(C)C)cc2)n1
Exam item: Hey, can you sort those molecules up there by pIC50, smallest first? Answer format: list of labels, ordered as asked.
Marked response: c, b, a

---

targetUnderTest: CDK7/cyclin H (Homo sapiens, UniProt P50613)
Sequence (P50613 whole entry): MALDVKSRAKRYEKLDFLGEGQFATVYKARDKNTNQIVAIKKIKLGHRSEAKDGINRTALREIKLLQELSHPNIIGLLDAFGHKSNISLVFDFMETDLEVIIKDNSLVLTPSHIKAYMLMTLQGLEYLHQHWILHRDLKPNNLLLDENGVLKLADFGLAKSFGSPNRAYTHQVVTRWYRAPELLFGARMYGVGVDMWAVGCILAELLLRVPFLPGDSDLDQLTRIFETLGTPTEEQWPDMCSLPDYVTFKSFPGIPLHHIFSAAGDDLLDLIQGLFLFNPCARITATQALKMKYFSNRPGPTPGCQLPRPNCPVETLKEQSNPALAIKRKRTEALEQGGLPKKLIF
runDescription: CDK7 assay
Format: biochemical
setupConditions: Table 2; read-out: Kinase Inhibition IC50 CDK7 cyclin H
pIC50: −log10 of the molar value.
experimentalEndpoint: pIC50

CC(=O)N(C)c1ccc(Nc2nccc(-c3sc(C)nc3C)n2)cc1 [Compound 48] : 5.46

[a] CNc1nc(C)c(-c2ccnc(Nc3cccc(CNS(=O)(=O)C(F)(F)F)c3)n2)s1 [Compound 82]
[b] Cc1nc(N2CCOCC2)sc1-c1ccnc(Nc2ccc(N3CCOCC3)cc2)n1 [Compound 56]
[c] Cc1nc(N2CCOCC2)sc1-c1ccnc(Nc2ccc(N(C)C)cc2)n1 [Compound 57]
Exam item: Put the entries in order of pIC50, starting with the largest number. Answer format: list of labels, ordered as asked.
Marked response: c, b, a

---

targetUnderTest: CDK2/cyclin E (Homo sapiens, UniProt P24941)
runDescription: Kinase assay CDK2/cyclin E
Type: biochemical
setupConditions: Table 2; read-out: Kinase Inhibition IC50 CDK2 cyclin E
experimentalEndpoint: IC50 (µM)

Here is how some compounds turned out for IC50.
Cc1nc(C)c(-c2ccnc(Nc3ccc(N4CCN(C)CC4)cc3)n2)s1 : 1.8
Cc1nc(C)c(-c2ccnc(Nc3ccc(N4CCN(CCO)CC4)cc3)n2)s1 : 2.2

[a] Cc1nc(NS(C)(=O)=O)sc1-c1ccnc(Nc2cccc([N+](=O)[O-])c2)n1
[b] Cc1nc(NC(=O)CNCCOCCO)sc1-c1ccnc(Nc2ccc(N(C)C)cc2)n1
Exam item: Among a and b , whose measured IC50 is the smaller figure? Pick one; state its label.
Marked response: a

[1] Cc1nc(C)c(-c2ccnc(Nc3ccc(S(C)(=O)=O)cc3)n2)s1
[2] Cc1nc(C)c(-c2ccnc(Nc3ccc(N4CCN(CCOCCO)CC4)cc3)n2)s1
Exam item: Among 1 and 2 , whose measured IC50 is the smaller figure? Pick one; state its label.
Marked response: 1
(1: 0.028 µM, 2: 1.8 µM)

---

targetUnderTest: PLK-1 (Homo sapiens)
Sequence (P53350 whole entry): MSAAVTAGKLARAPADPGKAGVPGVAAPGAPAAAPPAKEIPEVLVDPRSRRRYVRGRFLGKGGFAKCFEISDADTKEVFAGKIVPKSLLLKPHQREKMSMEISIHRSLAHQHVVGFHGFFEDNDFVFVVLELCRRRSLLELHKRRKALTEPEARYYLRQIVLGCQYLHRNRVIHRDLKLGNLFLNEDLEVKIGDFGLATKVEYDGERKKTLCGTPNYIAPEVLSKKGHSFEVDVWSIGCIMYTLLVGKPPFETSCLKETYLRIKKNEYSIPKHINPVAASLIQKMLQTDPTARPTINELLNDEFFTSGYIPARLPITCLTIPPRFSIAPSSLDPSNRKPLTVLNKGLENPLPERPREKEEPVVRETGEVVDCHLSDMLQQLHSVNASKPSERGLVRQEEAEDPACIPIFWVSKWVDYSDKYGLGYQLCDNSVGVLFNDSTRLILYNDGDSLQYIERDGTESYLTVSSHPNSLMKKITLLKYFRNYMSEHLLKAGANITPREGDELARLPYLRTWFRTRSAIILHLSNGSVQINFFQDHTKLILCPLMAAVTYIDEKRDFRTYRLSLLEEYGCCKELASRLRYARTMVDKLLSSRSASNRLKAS
runDescription: Kinase assay PLK-1
Type: biochemical
setupConditions: Table 2; read-out: Kinase Inhibition IC50 PLK-1
experimentalEndpoint: IC50

Here is how some molecules turned out for IC50.
CCNc1nc(C)c(-c2ccnc(Nc3cccc(CN)c3)n2)s1 : > 100 µM
Cc1nc(NC(=O)CCN2CCOCC2)sc1-c1ccnc(Nc2cccc([N+](=O)[O-])c2)n1 : > 100 µM
CNc1nc(C)c(-c2ccnc(Nc3cccc(CN)c3)n2)s1 : > 100 µM
Cc1nc(NC(=O)[C@H](N)[C@@H](C)O)sc1-c1ccnc(Nc2cccc([N+](=O)[O-])c2)n1 : > 150 µM
Cc1nc(C)c(-c2ccnc(Nc3ccc(N4CCOCC4)cc3)n2)s1 : > 100 µM
CC[C@@H](N)C(=O)Nc1nc(C)c(-c2ccnc(Nc3cccc([N+](=O)[O-])c3)n2)s1 : > 150 µM

Exam item: Using known records, supply IC50 for Cc1nc(NC(=O)CCN2CCOCC2)sc1-c1ccnc(Nc2ccc(F)cc2)n1
Marked response: > 200 µM

Exam item: Using known records, supply IC50 for Cc1nc(C)c(-c2ccnc(Nc3ccc(N4CCN(CCCO)CC4)cc3)n2)s1
Marked response: > 150 µM

Exam item: Using known records, supply IC50 for CCNc1nc(C)c(-c2ccnc(Nc3ccc(N4CCOCC4)cc3)n2)s1
Marked response: > 100 µM

Exam item: Using known records, supply IC50 for CNc1nc(C)c(-c2ccnc(Nc3ccc(N4CCOCC4)cc3)n2)s1
Marked response: > 150 µM

---

targetUnderTest: CDK2/cyclin A (Homo sapiens, UniProt P24941)
runDescription: Kinase assay CDK2/cyclin A
Assay type: biochemical
setupConditions: Table 2; read-out: Kinase Inhibition IC50 CDK2 cyclin A
Description: Kinase assays. […] This was achieved by measurement of incorporation of radioactive phosphate from ATP into appropriate polypeptide substrates. Recombinant protein kinases and kinase complexes were produced or obtained commercially. […] After washing 3 times with 75 mM aq orthophosphoric acid, plates were dried, scintillant added and incorporated radioactivity measured in a scintillation counter (TopCount, Packard Instruments, Pangbourne, Berks, UK). […]
pIC50: −log10 of the molar value.
experimentalEndpoint: pIC50

Cc1nc(NC(=O)CCN2CCOCC2)sc1-c1ccnc(Nc2cccc([N+](=O)[O-])c2)n1 : 7.01
Cc1nc(C)c(-c2ccnc(Nc3ccc(NC(=O)Cn4ccnc4)cc3)n2)s1 : 4.24
Cc1nc(C)c(-c2ccnc(Nc3ccc(NC(=O)Cn4cncn4)cc3)n2)s1 : 5.89
Cc1nc(C)c(-c2ccnc(Nc3ccc(N4CCNCC4)cc3)n2)s1 : 6.07

[P] Cc1nc(NC(=O)CCN2CCOCC2)sc1-c1ccnc(Nc2ccc(F)cc2)n1
[Q] Cc1c(-c2ccnc(Nc3ccc(N4CCN(C)CC4)cc3)n2)sc(=O)n1C
Exam item: Among P and Q , whose measured pIC50 is the smaller figure? Pick one; state its label.
Marked response: Q
(Q: 5.96, P: 6.49)

[1] CC(=O)Nc1ccc(Nc2nccc(-c3sc(C)nc3C)n2)cc1
[2] Cc1nc(NC(=O)CCl)sc1-c1ccnc(Nc2cccc(Cl)c2)n1
Exam item: Among 1 and 2 , whose measured pIC50 is the smaller figure? Pick one; state its label.
Marked response: 2

[1] Cc1nc(C)c(-c2ccnc(Nc3ccc(N4CCN(CCO)CC4)cc3)n2)s1
[2] Cc1nc(NC(=O)CCBr)sc1-c1ccnc(Nc2ccc(F)cc2)n1
Exam item: Sort 1 and 2 by pIC50 descending and give the first. Pick one; state its label.
Marked response: 2
(2: 6.28, 1: 5.92)

[1] Cc1nc(C)c(-c2ccnc(Nc3ccc(N4CCN(CCOCCO)CC4)cc3)n2)s1
[2] Cc1nc(C)c(-c2ccnc(Nc3ccc(NC(=O)CN4CCCC4)cc3)n2)s1
[3] CNc1nc(C)c(-c2ccnc(Nc3cccc(CNS(C)(=O)=O)c3)n2)s1
Exam item: Hey, can you sort those compounds up there by pIC50, smallest first? Answer format: list of labels, ordered as asked.
Marked response: 2, 1, 3
(2: 5.28, 1: 5.89, 3: 6.82)

---

targetUnderTest: CDK4/cyclin D1 (Homo sapiens, UniProt P11802)
runDescription: Kinase assay CDK4/cyclin D1
Assay type: biochemical
setupConditions: Table 2; read-out: Kinase Inhibition IC50 CDK4 cyclin D1
pIC50: −log10 of the molar value.
experimentalEndpoint: pIC50

Cc1c(-c2ccnc(Nc3ccc(N4CCN(C)CC4)cc3)n2)sc(=O)n1C [Compound 93] : 6.29
Cc1nc(NC(=O)CCl)sc1-c1ccnc(Nc2cccc([N+](=O)[O-])c2)n1 [Compound 24] : 6.36
CNc1nc(C)c(-c2ccnc(Nc3ccc(N4CCN(Cc5ccccc5)CC4)cc3)n2)s1 [Compound 11] : 8.01

[P] Cc1nc(N)sc1-c1ccnc(Nc2cccc(S(C)(=O)=O)c2)n1 [Compound 84]
[Q] CNc1nc(C)c(-c2ccnc(Nc3ccc(CCO)cc3)n2)s1 [Compound 59]
[R] COc1ccc(Nc2nccc(-c3sc(NC(=O)CCN4CCOCC4)nc3C)n2)cc1 [Compound 38]
[S] Cc1nc(C)c(-c2ccnc(Nc3ccc(N4CCOCC4)cc3)n2)s1 [Compound 2]
[T] Cc1nc(C)c(-c2ccnc(Nc3ccc(N4CCN(CCOCCO)CC4)cc3)n2)s1 [Compound 7]
Exam item: Put the entries in order of pIC50, starting with the largest number. Answer format: list of labels, ordered as asked.
Marked response: Q, P, T, R, S
(Q: 7.07, P: 6.52, T: 6.21, R: 5.74, S: 5.41)
